System: CCRIS mutagenicity, Ames/micronucleus/aberration tests
Experiment: CCRIS mutagenicity studies
Conditions: Test System: AMES SALMONELLA TYPHIMURIUM; Strain/Indicator: TA98; Metabolic Activation: NONE; Method: PREINCUBATION
Active and inactive are the calls of the source. No rule for the calls is given here.
Choose one outcome from this list and give only that: active, inactive

{"compound": "O=c1c2[nH]c3ccccc3c2nnn1/N=C/c1ccc(O)cc1", "study-target": "CCRIS mutagenicity, Ames/micronucleus/aberration tests", "label-class": "active"}
{"compound": "CCNNCC", "study-target": "CCRIS mutagenicity, Ames/micronucleus/aberration tests", "label-class": "inactive"}
{"compound": "OC1C=C2c3ccc4ccccc4c3-c3cccc(c32)C1O (configuration not stated)", "study-target": "CCRIS mutagenicity, Ames/micronucleus/aberration tests", "label-class": "inactive"}
{"compound": "O=C(O)c1ccccc1C(=O)O", "study-target": "CCRIS mutagenicity, Ames/micronucleus/aberration tests", "label-class": "inactive"}
{"compound": "C=C(C)CC(C)(C)C", "study-target": "CCRIS mutagenicity, Ames/micronucleus/aberration tests", "label-class": "inactive"}

Task: Called result for CC(=O)C(N=Nc1ccc(-c2ccc(N=NC(C(C)=O)C(=O)Nc3ccccc3)c(Cl)c2)cc1Cl)C(=O)Nc1ccccc1 (configuration not stated)
Output: inactive

Task: Called result for "Cc1[nH]ccc2c1[nH]c1cc(=O)ccc12"
Output: inactive

----------
Test system: CCRIS mutagenicity, Ames/micronucleus/aberration tests
Test: CCRIS mutagenicity studies
Details: Test System: AMES SALMONELLA TYPHIMURIUM; Strain/Indicator: TA97A; Metabolic Activation: RAT LIVER S-9, AROCLOR 1254; Method: STANDARD PLATE
From the text: The CCRIS database contains chemical records with carcinogenicity, mutagenicity, tumor promotion, and tumor inhibition test results. It was developed by the National Cancer Institute (NCI). Data are derived from studies cited in primary journals, current awareness tools, NCI reports, and other sources. Test results have been reviewed by experts in carcinogenesis and mutagenesis. CCRIS provides historical information from the years 1985 - 2011. It is no longer updated. […]
Calls of active or inactive are those of the source. The rule behind the calls is not given here.

{"molecule": "CC(C)=CCCC(C)CC=O (centres undefined)", "mutagenic call": "inactive; negative"}
{"molecule": "COC1=CC(=O)c2c(nc(C)c3c2[nH]c2ccncc23)C1=O", "mutagenic call": "inactive; negative"}
{"molecule": "Cc1cc(C)c(C)c(C)c1", "mutagenic call": "inactive; negative"}

----------
System: CCRIS mutagenicity, Ames/micronucleus/aberration tests
Experiment: CCRIS mutagenicity studies
Conditions: Test System: AMES SALMONELLA TYPHIMURIUM; Strain/Indicator: TA98; Metabolic Activation: NONE; Method: PREINCUBATION
Calls of active or inactive are those of the source. The rule behind the calls is not given here.
endpoint-name: mutagenic call

// solved cases for mutagenic call follow
{"compound": "C(=C\\c1ccccc1)/c1ccccc1", "result": "inactive; negative"}
{"compound": "F[B-](F)(F)F", "result": "inactive; negative"}
{"compound": "O=[N+]([O-])c1cccc(CO)c1", "result": "inactive; negative"}
{"compound": "c1cnc2c(c1)ccc1cccnc12", "result": "inactive; negative"}

Record "N#[N+]c1ccc([O-])cc1" , field mutagenic call: active; positive

Record "C=C(CC)C(=O)c1ccc(OCC(=O)O)c(Cl)c1Cl" , field mutagenic call: inactive; negative

Record NC(Cc1ccc(F)cc1)C(=O)O (stereo not given) , field mutagenic call: inactive; negative
